The values you see were collected from ChEMBL document CHEMBL4699491.

Assay: Tmax in Sprague-Dawley rat at 5 mg/kg, po by LC-MS/MS analysis
Type: ADME, organism-based
Conditions: in vivo
experimentalReadout: Tmax (h)

>>> measured("C[C@@H]1OCC2(CCN(c3cnc(Sc4ccnc(N)c4Cl)c(N)n3)CC2)[C@@H]1N [BATOPROTAFIB]")
1

###

Assay: Terminal half life in Sprague-Dawley rat at 1 mg/kg, iv by LC-MS/MS analysis
Type: ADME, organism-based
Details: in vivo, read-out: beta t1/2 (converted)
experimentalReadout: half-life (h)

>>> measured("C[C@@H]1OCC2(CCN(c3cnc(Sc4ccnc(N)c4Cl)c(N)n3)CC2)[C@@H]1N")
8

###

Experiment: Protein binding in cynomolgus monkey plasma
Format: ADME, cell-free, Macaca fascicularis
Conditions: read-out: PPB (converted)
experimentalReadout: fraction unbound

>>> measured("C[C@@H]1OCC2(CCN(c3cnc(Sc4ccnc(N)c4Cl)c(N)n3)CC2)[C@@H]1N")
0.39

###

Assay: physchem
Conditions: octanol/water
Description: Lipophilicity, logP of the compound
Param label: returns T when logP < 2, returns F otherwise, including exact equality.

>>> assignedlabel("CC1(CN)CCN(c2cnc(Sc3cccc(Cl)c3Cl)c(N)n2)CC1")
"F"
>>> assignedlabel("CC1(N)CCN(c2cnc(Sc3cccc(Cl)c3Cl)c(N)n2)CC1")
"F"
>>> assignedlabel("Nc1nc(N2CCC3(CC2)COC[C@H]3N)cnc1Sc1ccnc(N)c1Cl")
"T"
>>> assignedlabel("C[C@@H]1OCC2(CCN(c3cnc(Sc4ccnc(N)c4Cl)c(N)n3)CC2)[C@@H]1N")
"T"
>>> assignedlabel("Nc1nc(N2CCC3(CCC[C@H]3N)CC2)cnc1Sc1ccnc(N)c1Cl")
"F"

###

Voltage-gated inwardly rectifying potassium channel KCNH2 (Homo sapiens): reported pIC50 for various molecules.
Sequence (Q12809 whole entry): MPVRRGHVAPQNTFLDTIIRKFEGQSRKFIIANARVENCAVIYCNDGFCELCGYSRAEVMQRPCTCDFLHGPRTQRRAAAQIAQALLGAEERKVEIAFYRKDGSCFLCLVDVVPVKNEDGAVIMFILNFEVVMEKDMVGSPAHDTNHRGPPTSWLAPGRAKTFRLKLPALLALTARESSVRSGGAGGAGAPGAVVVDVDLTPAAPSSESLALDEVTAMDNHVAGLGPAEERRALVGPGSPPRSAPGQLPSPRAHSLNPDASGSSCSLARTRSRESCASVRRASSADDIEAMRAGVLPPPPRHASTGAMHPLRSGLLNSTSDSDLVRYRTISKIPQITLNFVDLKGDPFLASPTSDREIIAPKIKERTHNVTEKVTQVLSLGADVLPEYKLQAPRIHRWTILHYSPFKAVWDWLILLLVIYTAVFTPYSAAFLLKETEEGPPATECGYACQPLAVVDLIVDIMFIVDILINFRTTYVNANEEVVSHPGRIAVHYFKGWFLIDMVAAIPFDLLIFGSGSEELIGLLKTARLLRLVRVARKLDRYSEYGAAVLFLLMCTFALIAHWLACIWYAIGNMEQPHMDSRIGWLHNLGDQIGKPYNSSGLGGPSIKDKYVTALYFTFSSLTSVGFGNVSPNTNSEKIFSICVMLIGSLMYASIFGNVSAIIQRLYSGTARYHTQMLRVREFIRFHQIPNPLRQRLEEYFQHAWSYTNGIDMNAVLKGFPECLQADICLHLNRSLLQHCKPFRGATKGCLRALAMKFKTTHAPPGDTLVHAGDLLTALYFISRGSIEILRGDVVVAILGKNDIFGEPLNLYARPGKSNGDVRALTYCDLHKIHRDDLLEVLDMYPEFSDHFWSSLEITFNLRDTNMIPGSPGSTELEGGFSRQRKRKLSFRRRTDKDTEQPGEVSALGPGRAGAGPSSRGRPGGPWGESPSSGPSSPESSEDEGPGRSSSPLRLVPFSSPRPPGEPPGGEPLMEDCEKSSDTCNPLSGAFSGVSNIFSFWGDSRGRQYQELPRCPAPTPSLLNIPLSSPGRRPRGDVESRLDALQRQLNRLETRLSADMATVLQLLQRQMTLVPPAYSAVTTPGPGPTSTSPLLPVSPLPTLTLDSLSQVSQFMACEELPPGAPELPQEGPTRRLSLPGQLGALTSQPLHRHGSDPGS
pIC50: −log10 of the molar value.
experimentalReadout: pIC50

>>> measured("Nc1nc(N2CCC3(CC2)COC[C@H]3N)cnc1Sc1ccnc(N)c1Cl")
"< 4.60"
>>> measured("Nc1nc(N2CCC3(CCC[C@H]3N)CC2)cnc1Sc1ccnc(N)c1Cl")
"< 4.52"
>>> measured("CC1(CN)CCN(c2cnc(Sc3ccnc(N)c3Cl)c(N)n2)CC1")
"< 4.52"
>>> measured("C[C@@H]1OCC2(CCN(c3cnc(Sc4ccnc(N)c4Cl)c(N)n3)CC2)[C@@H]1N")
"< 4.52"
